Biological target: FGFR1 (UniProt P11362)
Sequence (P11362 whole entry, looked up): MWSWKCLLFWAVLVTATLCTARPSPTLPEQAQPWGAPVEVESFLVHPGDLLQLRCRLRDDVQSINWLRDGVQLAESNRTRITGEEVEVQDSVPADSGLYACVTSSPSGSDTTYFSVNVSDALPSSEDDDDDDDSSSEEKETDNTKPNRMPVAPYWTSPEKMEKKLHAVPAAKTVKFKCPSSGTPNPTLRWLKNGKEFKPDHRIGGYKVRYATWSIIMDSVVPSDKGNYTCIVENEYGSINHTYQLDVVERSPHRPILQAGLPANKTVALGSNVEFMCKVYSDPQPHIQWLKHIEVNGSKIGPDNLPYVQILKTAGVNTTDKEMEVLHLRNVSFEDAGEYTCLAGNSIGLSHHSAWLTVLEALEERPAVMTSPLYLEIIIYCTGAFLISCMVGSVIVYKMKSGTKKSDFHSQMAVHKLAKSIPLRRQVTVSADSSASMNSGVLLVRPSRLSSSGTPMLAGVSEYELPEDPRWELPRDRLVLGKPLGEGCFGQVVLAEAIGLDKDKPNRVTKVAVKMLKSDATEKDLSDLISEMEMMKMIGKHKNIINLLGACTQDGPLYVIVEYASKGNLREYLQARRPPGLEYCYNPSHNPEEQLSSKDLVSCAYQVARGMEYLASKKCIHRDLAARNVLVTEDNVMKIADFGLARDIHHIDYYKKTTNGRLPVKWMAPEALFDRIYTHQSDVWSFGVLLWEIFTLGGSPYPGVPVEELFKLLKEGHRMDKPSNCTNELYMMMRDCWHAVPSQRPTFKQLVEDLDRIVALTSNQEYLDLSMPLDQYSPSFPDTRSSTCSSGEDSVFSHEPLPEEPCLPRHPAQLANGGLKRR
Assay: phosphorylation enrichment, bacterial display (enrichment ratio); higher = better substrate or ligand; peptides without Tyr show the background;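 note: 11-residue human phosphosite peptides and single-mutation variants displayed on the E. coli surface, counted by deep sequencing, each peptide's frequency after selection divided by its frequency in the unselected input library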;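 note: frequency after pTyr selection over input frequency; kinase dosed for 20-30% of maximal phosphorylation in three min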
Hi, to clarify the labels: t covers phosphorylation enrichment from 0.4 upward, f covers anything below 0.4.

[[record]]
residue_codes = "ENGPYYASYPP [GDAP2_Y488_T489A]"
experimental_system = "FGFR1 (UniProt P11362)"
group_label = "t"

[[record]]
residue_codes = "EEGNPSFSSAR [MCCC2_Y520_Y520S_YF]"
experimental_system = "FGFR1 (UniProt P11362)"
group_label = "f"

[[record]]
residue_codes = "YRDALYKFMVD [PHEX_Y250]"
experimental_system = "FGFR1 (UniProt P11362)"
group_label = "t"


Ask: Please tell me: is the sequence DRPASYLEKVR [KRT13_Y118_L115P] at or over 0.4 in terms of phosphorylation enrichment?
Result: f

Ask: PESIPYRKFTT [NTRK1_Y701_L700P] , same question.
Result: t

Ask: Another: HLWRIYYDITD [MMP27_Y307]
Result: t

Ask: Here is the next sequence: EYGSGYPNDPK [RNASEH2A_Y210_D205E]
Result: t

Ask: # repeat for DRLASNLDKVR [KRT10_Y160_Y160N]
Result: t

Ask: # iterate: NFCPGYNNFFN [USH2A_Y467_R464C_YF]
Result: t

Ask: Lookup DRLASYPDKVR [KRT14_Y129_L130P]
Result: t

Ask: Quick one: VTSLKYSTPPY [BRIP1_Y916_S919P]
Result: f

Ask: Moving on to ESMNIYLQTSP [NAT1_Y208_T207I]
Result: t

Ask: Request: LLARLYRGQAL [FGFR4_Y390_G388R]
Result: t

Cited source for all entries: the supplement of paper PMC10065799
